Catalogue of IC50 values
# Test system: Leishmania donovani
# Test method notes: Antiprotozoal activity against amastigote form of Leishmania donovani MHOM/ET/67/L82 after 72 hrs by Alamar Blue assay
# Assay type: functional
# Reported conditions: MHOM/ET/67/L82, 72 h
Attribute measured: IC50 (µM)

COc1cccc2c(-c3ccc(O)c4c3C[C@@H](C)N[C@H]4C)c(C)cc(OC)c12 ... 228
COc1ccc(-c2ccc(O)c3c2C[C@@H](C)N[C@H]3C)c2cc(C)cc(OC)c12 ... 107
COc1ccc(-c2ccc3c(c2O)[C@@H](C)N(C)[C@H](C)C3)c2cc(C)cc(OC)c12 ... 136
COc1cc2c(c(OC)c1-c1c(C)cc(OC)c3c(OC)cccc13)[C@@H](C)N[C@@H](C)C2 ... 25.4
COc1cc2c(c(O)c1-c1c(C)cc(OC)c3c(OC)cccc13)C(C)=N[C@H](C)C2 ... 146

Hey, just so you know, these numbers are from ChEMBL document CHEMBL4052596.
